target: IRAK1 (human) (UniProt P51617); experiment: radiometric filter-binding kinase assay, Kinase HotSpot; settings: compound 0.5 µM; ATP 10 µM
Sequence (P51617 whole entry, looked up): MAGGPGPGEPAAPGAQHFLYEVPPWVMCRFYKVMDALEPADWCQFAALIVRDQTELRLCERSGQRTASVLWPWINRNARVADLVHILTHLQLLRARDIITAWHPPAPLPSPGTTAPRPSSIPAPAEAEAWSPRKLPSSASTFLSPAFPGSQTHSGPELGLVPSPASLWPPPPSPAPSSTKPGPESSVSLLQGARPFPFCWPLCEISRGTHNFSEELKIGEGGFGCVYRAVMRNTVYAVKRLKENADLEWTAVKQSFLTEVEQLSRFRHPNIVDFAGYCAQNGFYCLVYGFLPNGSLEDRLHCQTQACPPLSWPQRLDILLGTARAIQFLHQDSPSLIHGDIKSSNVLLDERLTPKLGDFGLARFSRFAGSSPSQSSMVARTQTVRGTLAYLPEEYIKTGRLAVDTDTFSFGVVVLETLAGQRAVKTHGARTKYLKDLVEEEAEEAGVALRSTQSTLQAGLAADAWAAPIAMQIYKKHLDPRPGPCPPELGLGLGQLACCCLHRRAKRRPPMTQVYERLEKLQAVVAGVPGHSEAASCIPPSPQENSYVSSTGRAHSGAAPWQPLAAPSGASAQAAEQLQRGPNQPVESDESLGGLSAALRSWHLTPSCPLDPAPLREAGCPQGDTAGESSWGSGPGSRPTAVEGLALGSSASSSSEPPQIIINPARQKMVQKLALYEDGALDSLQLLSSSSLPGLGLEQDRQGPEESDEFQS

{"COMPOUND": "COc1cc2ncc(-c3ccccc3)nc2cc1OC", "READING_UNIT": "%", "residual activity": 98.4}
{"COMPOUND": "O=C1NC(=O)C(c2cn(CCCO)c3ncccc23)=C1c1cnccn1", "READING_UNIT": "%", "residual activity": 76.6}
{"COMPOUND": "O=C(CCCc1ccc(-c2ccccc2F)cc1)Nc1ccc(O)cc1", "READING_UNIT": "%", "residual activity": 100}
{"COMPOUND": "Cn1sc(=O)n(Cc2ccccc2)c1=O", "READING_UNIT": "%", "residual activity": 116}
{"COMPOUND": "Oc1ccc(Nc2nc(-c3ccc(Cl)cc3)cs2)cc1", "READING_UNIT": "%", "residual activity": 123}
{"COMPOUND": "CCn1cnc2c(Nc3cccc(Cl)c3)nc(N[C@@H]3CCCC[C@@H]3N)nc21", "READING_UNIT": "%", "residual activity": 81.7}
{"COMPOUND": "O=C1Nc2ccccc2/C1=C1/Nc2ccccc2/C1=N\\OCCC(O)CO (configuration not stated)", "READING_UNIT": "%", "residual activity": 34.5}
{"COMPOUND": "COc1ccc(OC)c2c(=S)c3ccccc3[nH]c12", "READING_UNIT": "%", "residual activity": 91.1}
{"COMPOUND": "CC(C)[C@H](CO)Nc1nc(Nc2cc(N)cc(Cl)c2)c2ncn(C(C)C)c2n1", "READING_UNIT": "%", "residual activity": 97.1}
{"COMPOUND": "O=C1Cc2c([nH]c3ccc(Br)cc23)-c2ccccc2N1", "READING_UNIT": "%", "residual activity": 98.6}
{"COMPOUND": "CC(C)c1nn(-c2c(Cl)cccc2Cl)c2nc(Cc3ccc(OCCO)cc3)nc(O)c12", "READING_UNIT": "%", "residual activity": 99.2}
{"COMPOUND": "CC(=O)O/N=C1\\C(=C2\\C(=O)Nc3cc(Br)ccc32)Nc2ccccc21", "READING_UNIT": "%", "residual activity": 67.4}
{"COMPOUND": "Nc1nnc2[nH]c3ccccc3nc1-2", "READING_UNIT": "%", "residual activity": 88.9}
{"COMPOUND": "CN(C)C[C@H]1CCn2c(c(C3=C(c4cn(C)c5ccccc45)C(=O)NC3=O)c3ccccc32)C1", "READING_UNIT": "%", "residual activity": 127}
{"COMPOUND": "O=C1NC(=O)C(c2c[nH]c3ccccc23)=C1c1c[nH]c2ccccc12", "READING_UNIT": "%", "residual activity": 89.6}
{"COMPOUND": "Cn1nc2c3c(cccc31)C(=O)c1ccccc1-2", "READING_UNIT": "%", "residual activity": 99.6}
{"COMPOUND": "CN([C@@H](Cc1ccc(OS(=O)(=O)c2cccc3cnccc23)cc1)C(=O)N1CCN(c2ccccc2)CC1)S(=O)(=O)c1cccc2cnccc12", "READING_UNIT": "%", "residual activity": 95.4}
{"COMPOUND": "Nc1nccc(-c2c(-c3ccc(F)cc3)ncn2C2CCNCC2)n1", "READING_UNIT": "%", "residual activity": 114}
{"COMPOUND": "O=C(Nc1cccc(Nc2cc(Nc3cccc(C(F)(F)F)c3)ncn2)c1)C1CC1", "READING_UNIT": "%", "residual activity": 111}
{"COMPOUND": "O=C1Nc2ccccc2/C1=C1\\Nc2ccccc2\\C1=N/O", "READING_UNIT": "%", "residual activity": 68.8}
{"COMPOUND": "Cc1nc2cc3nc(-c4cccs4)cnc3cc2n1C", "READING_UNIT": "%", "residual activity": 113}
{"COMPOUND": "COc1ccc(CNC(=O)Nc2ncc([N+](=O)[O-])s2)cc1", "READING_UNIT": "%", "residual activity": 108}

---

target: MARK3 (human) (UniProt P27448); assay: radiometric filter-binding kinase assay, Kinase HotSpot; details: compound 0.5 µM; ATP 10 µM
Sequence (P27448 whole entry, looked up): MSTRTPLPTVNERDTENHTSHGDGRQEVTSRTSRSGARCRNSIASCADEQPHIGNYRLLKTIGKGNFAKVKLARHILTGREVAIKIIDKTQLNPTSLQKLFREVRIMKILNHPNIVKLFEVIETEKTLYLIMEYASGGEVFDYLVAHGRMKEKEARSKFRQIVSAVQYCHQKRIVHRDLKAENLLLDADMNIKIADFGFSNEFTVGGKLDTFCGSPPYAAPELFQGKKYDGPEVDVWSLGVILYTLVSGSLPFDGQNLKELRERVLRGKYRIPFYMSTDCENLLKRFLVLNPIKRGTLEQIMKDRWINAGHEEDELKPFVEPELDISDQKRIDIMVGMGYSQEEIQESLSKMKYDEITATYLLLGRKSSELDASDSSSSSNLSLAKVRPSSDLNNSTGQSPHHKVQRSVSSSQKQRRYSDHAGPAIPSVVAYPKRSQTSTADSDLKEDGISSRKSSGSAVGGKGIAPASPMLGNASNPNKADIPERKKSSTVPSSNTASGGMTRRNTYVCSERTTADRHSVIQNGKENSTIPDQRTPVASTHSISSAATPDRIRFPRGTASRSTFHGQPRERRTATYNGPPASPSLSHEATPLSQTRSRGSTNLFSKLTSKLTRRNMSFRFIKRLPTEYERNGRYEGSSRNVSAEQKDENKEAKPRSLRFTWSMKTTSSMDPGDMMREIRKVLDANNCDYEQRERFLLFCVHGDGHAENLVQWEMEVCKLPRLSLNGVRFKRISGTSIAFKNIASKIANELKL
Short version: residual activity at least 90% is true, less is false.

{"MOLECULE": "Cn1nc2c3c(cccc31)C(=O)c1ccccc1-2", "ANSWER_LABEL": "true"}
{"MOLECULE": "O=C1NC(=O)C(c2c[nH]c3ccccc23)=C1c1c[nH]c2ccccc12", "ANSWER_LABEL": "true"}
{"MOLECULE": "CCN(CC)CCCCN1c2ccccc2Oc2ccc(Cl)cc21", "ANSWER_LABEL": "true"}
{"MOLECULE": "O=C1Nc2ccccc2/C1=C1/Nc2ccccc2/C1=N\\OCCC(O)CO (stereo not given)", "ANSWER_LABEL": "false"}
{"MOLECULE": "CC(=O)O/N=C1\\C(=C2\\C(=O)Nc3cc(Br)ccc32)Nc2ccccc21", "ANSWER_LABEL": "false"}
{"MOLECULE": "Oc1ccc(Nc2nc(-c3ccc(Cl)cc3)cs2)cc1", "ANSWER_LABEL": "true"}
{"MOLECULE": "CN([C@@H](Cc1ccc(OS(=O)(=O)c2cccc3cnccc23)cc1)C(=O)N1CCN(c2ccccc2)CC1)S(=O)(=O)c1cccc2cnccc12", "ANSWER_LABEL": "true"}
{"MOLECULE": "Cc1nc2cc3nc(-c4cccs4)cnc3cc2n1C", "ANSWER_LABEL": "true"}
{"MOLECULE": "CC(C)[C@H](CO)Nc1nc(Nc2cc(N)cc(Cl)c2)c2ncn(C(C)C)c2n1", "ANSWER_LABEL": "false"}
{"MOLECULE": "O=C(Nc1cccc(Nc2cc(Nc3cccc(C(F)(F)F)c3)ncn2)c1)C1CC1", "ANSWER_LABEL": "true"}
{"MOLECULE": "Cn1cnc2cc3c(Nc4cccc(Br)c4)ncnc3cc21", "ANSWER_LABEL": "true"}
{"MOLECULE": "O=C1Nc2ccccc2/C1=C1\\Nc2ccccc2\\C1=N/O", "ANSWER_LABEL": "false"}
{"MOLECULE": "CCn1cnc2c(Nc3cccc(Cl)c3)nc(N[C@@H]3CCCC[C@@H]3N)nc21", "ANSWER_LABEL": "true"}

---

target: UniProt Q02763; test: radiometric filter-binding kinase assay, Kinase HotSpot; details: compound 0.5 µM; ATP 10 µM
Sequence (Q02763 whole entry, looked up): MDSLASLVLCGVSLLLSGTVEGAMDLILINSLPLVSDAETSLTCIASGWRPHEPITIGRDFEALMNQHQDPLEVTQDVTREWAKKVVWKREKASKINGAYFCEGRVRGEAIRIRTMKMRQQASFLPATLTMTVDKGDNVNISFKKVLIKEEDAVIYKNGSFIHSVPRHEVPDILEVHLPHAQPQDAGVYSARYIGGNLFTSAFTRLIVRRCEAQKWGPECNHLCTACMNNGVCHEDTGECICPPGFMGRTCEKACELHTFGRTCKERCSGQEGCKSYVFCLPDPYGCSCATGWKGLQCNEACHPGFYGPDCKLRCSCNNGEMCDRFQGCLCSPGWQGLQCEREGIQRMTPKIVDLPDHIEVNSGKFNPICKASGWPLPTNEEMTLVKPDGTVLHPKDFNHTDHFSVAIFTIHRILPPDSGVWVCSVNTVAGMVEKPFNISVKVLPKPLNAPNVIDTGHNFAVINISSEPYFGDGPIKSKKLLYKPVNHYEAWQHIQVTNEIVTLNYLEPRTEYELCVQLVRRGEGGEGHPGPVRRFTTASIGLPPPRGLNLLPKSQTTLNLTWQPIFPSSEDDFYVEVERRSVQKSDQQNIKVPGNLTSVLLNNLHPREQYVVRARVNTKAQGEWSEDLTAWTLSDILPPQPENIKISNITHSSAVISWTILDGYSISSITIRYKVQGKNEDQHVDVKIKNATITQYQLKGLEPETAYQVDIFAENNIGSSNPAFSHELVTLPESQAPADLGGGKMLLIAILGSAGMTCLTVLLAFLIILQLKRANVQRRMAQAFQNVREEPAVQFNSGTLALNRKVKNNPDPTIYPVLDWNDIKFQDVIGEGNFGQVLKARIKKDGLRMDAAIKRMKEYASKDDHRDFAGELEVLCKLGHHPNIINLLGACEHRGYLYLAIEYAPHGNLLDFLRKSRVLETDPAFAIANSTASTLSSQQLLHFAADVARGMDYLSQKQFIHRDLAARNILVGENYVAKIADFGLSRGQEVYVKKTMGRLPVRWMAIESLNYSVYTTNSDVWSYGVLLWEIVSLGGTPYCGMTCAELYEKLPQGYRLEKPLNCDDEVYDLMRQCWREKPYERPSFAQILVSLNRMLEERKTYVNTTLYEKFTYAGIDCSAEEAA
Quick list: residual activity per entry.
ATTRIBUTE_MEASURED: residual activity (%)

{"SMILES_STRING": "Cn1sc(=O)n(Cc2ccccc2)c1=O", "TARGET_OF_ASSAY": "UniProt Q02763", "VAL": 90.9}
{"SMILES_STRING": "CC(C)c1nn(-c2c(Cl)cccc2Cl)c2nc(Cc3ccc(OCCO)cc3)nc(O)c12", "TARGET_OF_ASSAY": "UniProt Q02763", "VAL": 100}
{"SMILES_STRING": "CN([C@@H](Cc1ccc(OS(=O)(=O)c2cccc3cnccc23)cc1)C(=O)N1CCN(c2ccccc2)CC1)S(=O)(=O)c1cccc2cnccc12", "TARGET_OF_ASSAY": "UniProt Q02763", "VAL": 106}
{"SMILES_STRING": "O=C1Cc2c([nH]c3ccc(Br)cc23)-c2ccccc2N1", "TARGET_OF_ASSAY": "UniProt Q02763", "VAL": 106}

---

Quick list: residual activity per entry.
target: MARK2 (human); assay: radiometric filter-binding kinase assay, Kinase HotSpot; settings: compound 0.5 µM; ATP 10 µM

{"COMPOUND": "O=C1Nc2ccccc2/C1=C1\\Nc2ccccc2\\C1=N/O", "READING_UNIT": "%", "residual activity": 78.4}
{"COMPOUND": "COc1ccc(CNC(=O)Nc2ncc([N+](=O)[O-])s2)cc1", "READING_UNIT": "%", "residual activity": 106}
{"COMPOUND": "O=C1NC(=O)C(c2cn(CCCO)c3ncccc23)=C1c1cnccn1", "READING_UNIT": "%", "residual activity": 97.5}
{"COMPOUND": "O=C(CCCc1ccc(-c2ccccc2F)cc1)Nc1ccc(O)cc1", "READING_UNIT": "%", "residual activity": 91.5}
{"COMPOUND": "O=C1NC(=O)/C(=C\\c2ccc3nccnc3c2)S1", "READING_UNIT": "%", "residual activity": 93}
{"COMPOUND": "CC(=O)O/N=C1\\C(=C2\\C(=O)Nc3cc(Br)ccc32)Nc2ccccc21", "READING_UNIT": "%", "residual activity": 74.9}
{"COMPOUND": "CC(C)[C@H](CO)Nc1nc(Nc2cc(N)cc(Cl)c2)c2ncn(C(C)C)c2n1", "READING_UNIT": "%", "residual activity": 74.1}
{"COMPOUND": "CCN(CC)CCCCN1c2ccccc2Oc2ccc(Cl)cc21", "READING_UNIT": "%", "residual activity": 86.1}
{"COMPOUND": "O=C1NC(=O)C(c2c[nH]c3ccccc23)=C1c1c[nH]c2ccccc12", "READING_UNIT": "%", "residual activity": 88.9}
{"COMPOUND": "CCn1cnc2c(Nc3cccc(Cl)c3)nc(N[C@@H]3CCCC[C@@H]3N)nc21", "READING_UNIT": "%", "residual activity": 90.1}
{"COMPOUND": "CN(C)C[C@H]1CCn2c(c(C3=C(c4cn(C)c5ccccc45)C(=O)NC3=O)c3ccccc32)C1", "READING_UNIT": "%", "residual activity": 94.9}
{"COMPOUND": "COc1cc2ncc(-c3ccccc3)nc2cc1OC", "READING_UNIT": "%", "residual activity": 112}
{"COMPOUND": "Cn1sc(=O)n(Cc2ccccc2)c1=O", "READING_UNIT": "%", "residual activity": 118}
{"COMPOUND": "Cn1cnc2cc3c(Nc4cccc(Br)c4)ncnc3cc21", "READING_UNIT": "%", "residual activity": 96.6}
{"COMPOUND": "Nc1nccc(-c2c(-c3ccc(F)cc3)ncn2C2CCNCC2)n1", "READING_UNIT": "%", "residual activity": 97}
{"COMPOUND": "CN([C@@H](Cc1ccc(OS(=O)(=O)c2cccc3cnccc23)cc1)C(=O)N1CCN(c2ccccc2)CC1)S(=O)(=O)c1cccc2cnccc12", "READING_UNIT": "%", "residual activity": 103}
{"COMPOUND": "O=C1Cc2c([nH]c3ccc(Br)cc23)-c2ccccc2N1", "READING_UNIT": "%", "residual activity": 74.3}
{"COMPOUND": "O=C(Nc1cccc(Nc2cc(Nc3cccc(C(F)(F)F)c3)ncn2)c1)C1CC1", "READING_UNIT": "%", "residual activity": 101}
{"COMPOUND": "Cn1nc2c3c(cccc31)C(=O)c1ccccc1-2", "READING_UNIT": "%", "residual activity": 94.1}
{"COMPOUND": "O=C1Nc2ccccc2/C1=C1/Nc2ccccc2/C1=N\\OCCC(O)CO (configuration not stated)", "READING_UNIT": "%", "residual activity": 57.4}
{"COMPOUND": "CC(C)c1nn(-c2c(Cl)cccc2Cl)c2nc(Cc3ccc(OCCO)cc3)nc(O)c12", "READING_UNIT": "%", "residual activity": 88}
{"COMPOUND": "COc1cc2ncnc(N3CCN(C(=O)Nc4ccc(Oc5ccccc5)cc4)CC3)c2cc1OC", "READING_UNIT": "%", "residual activity": 97.4}
{"COMPOUND": "Oc1ccc(Nc2nc(-c3ccc(Cl)cc3)cs2)cc1", "READING_UNIT": "%", "residual activity": 102}
{"COMPOUND": "COc1ccc(OC)c2c(=S)c3ccccc3[nH]c12", "READING_UNIT": "%", "residual activity": 93.9}
{"COMPOUND": "Nc1nnc2[nH]c3ccccc3nc1-2", "READING_UNIT": "%", "residual activity": 110}
{"COMPOUND": "O=C(O)/C=C/c1cc(Br)c(Br)c(Br)c1Br", "READING_UNIT": "%", "residual activity": 82.1}
{"COMPOUND": "Cc1nc2cc3nc(-c4cccs4)cnc3cc2n1C", "READING_UNIT": "%", "residual activity": 81.4}
